Property: melting point; scope: individual compounds

Compound	Data value
CSc1ncc(Cc2ccncc2)c(=O)[nH]1	179 to 182 °C

Any idea what its melting point is? The compound is O=C1c2ccccc2C(=O)N1CC(O)COc1cccc2ccccc12 (stereo unspecified)
152 to 154 °C

----------
Collected melting point values appear next to each entry.

As a guide, the following entries are already answered.
Compound	melting point
CCOc1ccc(-c2nc(C3=CCN(C)CC3)cs2)cc1OCC	81.2 to 83.6 °C
C=C(C)C(=O)OCCCCOC(=O)/C=C/c1ccc(OC(=O)c2ccc(OC)cc2)cc1	89 to 90 °C
CCCN=C(N)Nc1ccnc(CCCCC(N)=O)n1	212 to 214 °C

Need melting point of OC1OC2CC3CC(C2)OC1O3 (centres undefined) , thanks.
185 to 194 °C

Using the record for CC(=O)c1cc(S(=O)(=O)N(C)C)c(Cl)cc1Cl , report its melting point.
98 to 100 °C

Entry under review: N=C(N)c1ccc(-n2ccn(-c3ccc(C=CC(=O)O)cc3)c2=O)cc1 . Reported melting point?
> 350 °C

Can you look up the measured melting point of CC(C)(C)OC(=O)NCOc1ccccc1C(=O)O for me?
141 to 144 °C

Can you share its melting point? I mean this compound: Oc1ccccc1-c1c(Cl)cccc1Cl
100 to 103 °C

Which value of melting point has been reported for N#Cc1ccc(Cc2nc3ccccc3[nH]2)cc1 in the records?
133 to 136 °C

Fill blank: measured melting point of the compound COc1cc2c(cc1S(=O)(=O)c1cccs1)[C@@H](N1CCCC1=O)[C@H](O)C(C)(C)O2 (relative stereo) is ____.
135 to 136 °C

Returns the measured melting point for the input compound. Input: Cn1cncc1C(O)(c1ccc(Cl)cc1)c1ccc2c(c1)C(c1cccc(Cl)c1)SCC(=O)N2CC1CC1 (centres undefined)
245 °C

Given the compound Cc1ccccc1CNc1c2c(nc3ccccc13)CCCC2O (centres undefined) , what is its reported melting point?
167 to 169 °C

# input compound: CCOc1cc(N)c(Cl)cc1C(=O)NC1CCN(CC2CCN(C(=O)CCOC)CC2)CC1 ; wanted: its melting point
175 to 177 °C

melting point lookup needed for Fc1cncc(F)c1C1=NC(c2ccc(I)cc2)CO1 (centres undefined) , thanks.
84 to 86 °C

----------
Entries and their melting point values follow.
// units = °C; emit number, no label

Smiles entry	Unit of measurement	Data value
Cn1ncnc1COc1nn2c(-c3cccs3)nncc2c1-c1ccccc1	°C	209

Consider now this further molecule.
Entry Cc1oc2ccccc2c1C(=O)c1ccc(Cl)c(N)c1 has what melting point?
103

----------
Quantity: melting point

Compound	melting point
Cn1cc(Br)cc(Nc2cc3n(n2)CCOC3)c1=O	195 to 197 °C

Any idea what its melting point is? The compound is CC(C)=NNc1cc2c(nn1)CCN(C(=O)c1ccc(Cl)cc1)C2
221 to 223 °C

Tell me the measured melting point of COC(=O)c1ccc(Cc2c[nH]c3ccc(C=O)cc23)c(OC)c1 , please.
117 to 120 °C

Please look up its melting point: COc1ccc(C=Cc2ccc(CO)cc2)cc1
200 to 202 °C

Name the recorded melting point for CCn1cc(C(=O)O)c(=O)c2cc(F)c(Cl)cc21 .
279 to 281 °C

----------
Measured melting point, listed per entry for reference.

Molecule	Quantity	Data value
CC(C)(C)c1cc(-n2nc3ccccc3n2)c(O)c(C(C)(C)C)c1	melting point	150 to 152 °C
C=CCn1cccc1C(N)=S	melting point	80.5 to 83 °C
O=C(OC1CCCCC1=O)c1cccc2ccccc12 (stereo unspecified)	melting point	94 to 95 °C
CCCCc1cnc2ccccc2c1Nc1ccc(C(=O)O)cc1	melting point	276 °C
CCCCOCCOc1ccc(-c2ccc3c(c2)C=C(C(=O)Nc2ccc(S(=O)Cc4nncn4CCC)nc2)CCN3CC(C)C)cc1 (stereo unspecified)	melting point	135 to 138 °C

Can you share its melting point? I mean this molecule: Cc1cc2c(cc1O)C(C)(C)CCC2(C)C
122 to 123 °C

----------
Quantity: melting point

Examples from the recorded data:
Molecule	melting point
CCOC(=O)c1ccc2cnccc2n1	106 to 108 °C
CCCCCCCCCCC=Cc1cnn(C(C(=O)Nc2c(C(C)C)cccc2C(C)C)c2ccccc2)c1 (stereo not drawn)	158 °C

In the following, a different molecule is considered.
Dear colleague, I am looking for the recorded melting point of the following molecule: COC1=NS(=O)(=O)N(Cc2ccccc2)C(N)=N1
141 to 144 °C

----------
Quantity: melting point

Below: 3 molecules and their reported melting point.
Molecule	melting point
CCN(CC)CC1CCCCN1CC(=O)N1c2ccccc2NC(=O)c2csc(C)c21 (configuration not stated)	147 to 149 °C
O=c1cc(-c2cccnc2)oc2ccccc12	123 to 124 °C
CC(C)CCOc1cccc2c1C(=O)CC(c1nnn[nH]1)O2 (configuration not stated)	134 to 137 °C

Quick check: melting point of O=[N+]([O-])c1cnn(C2CC2)c1 ?
44 to 45 °C

Look up melting point for this molecule: O=C(CCCO)Nc1cccc(-c2cccc3cc(Cc4cccc(C(F)(F)F)c4)oc23)c1
134 to 135 °C

Which melting point value belongs to O=C(O)c1ccc(-c2ccccc2OC2OC(CO)C(O)C(O)C2O)cc1 (configuration not stated) ?
248 to 249 °C

----------
Each record here notes measured melting point.

Compound	Data value
CC#CC1Cc2ccc(C(=O)CCC(=O)N3CCC(c4ccc(Cl)cc4)CC3)cc2CCN1 (configuration not stated)	132 to 134 °C
CCOc1ccc(-c2ccc3c(c2)C=C(C(=O)Nc2ccc(CN(C)C4CCOCC4)cc2)CCS3(=O)=O)cc1OCC	224 to 226 °C
COC(=O)C1=C(C)NC(c2ncsc2Cl)=NC1c1ccc(F)cc1Cl (configuration not stated)	98 to 100 °C
Cc1cc(C(=O)O)ccc1C1=CC(C)(C)CC(C)(C)C1	118 to 120 °C
Cc1nc(Nc2ccccc2)sc1C(=O)c1sc(Nc2ccccc2)nc1C	194 to 196 °C
COc1ccc(Nc2ccnc3nc(C)c(OC(=O)COC(C)=O)cc23)cc1	213 to 216 °C

Fill in the blank: the reported melting point of CC(C)(C#N)Cc1cccc(CC(C)(C)C#N)c1 is ____.
58 to 63 °C

For the compound CO/C=C1/C(=O)NC(=O)c2ccc(I)cc21 , what melting point is on record?
120 to 121 °C

// melting point lookup, key: COc1ccccc1CNc1ccc2cc(Nc3nnc(C(F)(F)F)o3)ccc2n1
198 °C

Returns the measured melting point for the input compound. Input: O=C(O)CCCc1cc2nc(Cl)ccc2n1S(=O)(=O)c1cc(C(F)(F)F)cc(C(F)(F)F)c1
155 to 164 °C

Reported melting point, compound Cc1cc2c(-c3ccccc3C)c(NC(=O)Nc3ccc(F)cc3F)c(=O)n(C)c2cc1Cl : ____
227 to 229 °C

Any idea what its melting point is? The compound is CC(C)c1cc(Oc2c(Cl)cc(C(F)(F)F)cc2Cl)n[nH]1
98 to 101 °C

What does the data say about its melting point? Entry: O=C(NCc1ccc(Cl)cc1)c1nnc2ccc(CO)cc2c1O
296 to 298 °C

Name the recorded melting point for O=C(NC[C@H]1CC[C@H](C(=O)O)CC1)OCc1ccccc1 .
114 to 116 °C

Quick check: melting point of Nc1cc(OCc2cccc(Cl)c2)c(C(=O)NC2CN3CCC2CC3)cc1Cl (configuration not stated) ?
168 to 169 °C

Fill in: melting point of O=C(O)C12CC=CCC1CSc1ccccc12 (configuration not stated) is ___
152 to 155 °C

Report melting point for OCc1cccn2cc(C(F)(F)F)nc12 please.
118 to 120 °C

# melting point lookup, item O=C(O)C1CCCN1C(=O)c1ccc(-c2ccccc2)cc1 (configuration not stated)
160 °C

Reported melting point for N#Cc1c(N)cccc1N : what is it?
91 to 92 °C

Name the reported melting point value associated with the compound O=C(Cc1ccccc1)Nc1cc(-c2ccc(Cl)cc2)[nH]n1
222 to 224 °C

Sample CCOC(=O)C1=C(C(=O)OCC)C(c2cc(OC)c(OC)c(OC)c2)C(C(=O)OCC)=C(C)N1 (configuration not stated) — what was its melting point?
134 °C

So what does the record say about melting point for CCCCCCCCCCCCc1ccccc1C(SCC(=O)O)C(=O)O (configuration not stated) ?
65 to 66 °C

So what's the measured melting point for this one? CCCc1nn(C)c2c(=O)n(CCOc3ccc(NC(C)C(=O)OCC)cc3)c(CC)nc12 (configuration not stated)
100 to 104 °C

Item CCc1c(C(=O)C(N)=O)c2c([N+](=O)[O-])cccc2n1Cc1ccccc1 has what recorded melting point?
207 to 208 °C

I am curious: what melting point value has been reported for CCCCC(=O)c1c(-c2ccc3cc(OCC(=O)O)ccc3c2)oc2ccc(Cl)cc12 ?
158 to 160 °C

For the compound shown here, Cn1nnc(-c2[nH]c3ccccc3c2Cl)n1 , give the reported melting point.
197 to 199 °C

Requested read-out: melting point. Entry: CC1(C)CC(=O)c2c(SCc3ccccc3)cn(-c3ccccn3)c2C1
190 to 192 °C
